- Tested on: SNB-19 CNS
- assay-explanation: NCI tumour cell line growth inhibition, 48 h
assay-readout: TGI

molecule | measured-result
Cc1ccc2c(=O)cc(-c3ccc(C)s3)[nH]c2n1 | > 100 µM
C=CCC(N[C@H](CO)c1ccccc1)c1cn(Cc2ccccc2Cl)c(=O)n(Cc2ccccc2Cl)c1=O (some centres undefined) | > 100 µM
CCOC(=O)/C=C(/C(=O)OCC)n1ccc(=O)n(Cc2cnnn2COCCOC(C)=O)c1=O | > 31.6 µM
C/C(=C(\c1ccc(OCCN2CCCCCC2)cc1)c1ccc(OC(=O)c2ccccc2)cc1)c1ccc(Cl)cc1 | 18.5 µM
O=C1O[C@H]2[C@H](OC(=O)c3cc(O)c(O)c(O)c3)[C@@H](OC(=O)c3cc(O)c(O)c4c3[C@@H]3C1=CC(=O)C(O)(O)C3(O)O4)[C@H](OC(=O)c1cc(O)c(O)c(O)c1)O[C@@H]2COC(=O)c1cc(O)c(O)c(O)c1 (some centres undefined) | > 100 µM
Nc1ncnc2c1ncn2C1CCC(CP(=O)(O)O)C1 (centres undefined) | > 100 µM
COc1cc(C2(c3ncc[nH]3)SSSCC2O)ccc1O (centres undefined) | > 100 µM
COc1ccc(S(=O)(=O)N(CC(=O)O)c2ccccc2)cc1 | > 100 µM
CCCCCCCC/C=C/CCCCCCCC1=NC(C)(C)CN1CCO | 21.5 µM
CC(=O)NCC1OC2COC(c3ccccc3)OC2C(NC(=O)c2ccccc2)C1OC(=O)c1ccccc1 (centres undefined) | > 100 µM
CCOC(=O)/C(=N/Nc1ccccc1)N1C(=S)C=C(C)NN(C)C1=S | > 100 µM
CCOc1ccn(-c2ccc(F)cc2)c(=O)c1C(=O)Nc1ccc(Oc2ccnc(N)c2Cl)c(F)c1 | > 100 µM
O=[N+]([O-])c1ccc(-n2nc3ccc4c(no[n+]4[O-])c3n2)cc1 | > 100 µM
Cc1cc2nc3ccccc3n2c2nc(N)ccc12 | > 100 µM
COc1ccc(OC)c2c1C=CC(Br)=CC2 | > 1 µM
COc1ccc(OC)c(/C=N/N=C(\N)NO)c1 | > 100 µM
CN(CCCNC(=O)c1cn(C)c2c1Cc1ccccc1-2)CCCNC(=O)c1cn(C)c2c1Cc1ccccc1-2 | 24.1 µM
COc1nc(N)c(NC(C)=O)c(=O)n1C | > 100 µM
CC(C)=CCC[C@@H](C)C1=C(O)C(Nc2ccccc2Cl)=C(C)C(=O)C1=O | > 75 µM
COc1c(-c2ccccc2)nc2ccc(Oc3ccccc3)nn12 | > 100 µM
CCOc1ccccc1N=Nc1c(-c2ccccc2)nn(C(=O)CC(=O)Nc2cccc(C)c2)c1-c1ccccc1 | > 100 µM
COc1cccc(/C=C2\S/C(=N/Nc3nc(C)c(C)s3)NC2=O)c1O | > 100 µM
OC(CN(CCCl)CCCl)C(O)C(O)C(O)CN(CCCl)CCCl (centres undefined) | > 100 µM
NS(=O)(=O)c1cc(C(=O)O)c(O)c2ccccc12 | > 100 µM
Cn1cc(-c2cnn3c(N)c(Br)c(C4CCCNC4)nc23)cn1 (centres undefined) | > 100 µM
COC(=O)c1oc2c(C(=O)/C=C/c3ccc(OC)cc3)c(OCCN(C)C)ccc2c1C | 23.5 µM
COC(C)(C)/C=C/c1[nH]c2ccccc2c1CC(=O)NCCc1cn(C(c2ccccc2)(c2ccccc2)c2ccccc2)cn1 | > 100 µM
COc1ccc(N=NC(=O)NC(CC(C)C)C(=O)NCC(=O)O)cc1 (centres undefined) | > 100 µM
COC(=O)C1C(=O)O[C@@H](c2cc(OC)c(OC)cc2OC)C1C(=O)OC (mixture of isomers) | > 100 µM
Fc1ccc2c3c([nH]c2c1)CCN(Cc1ccccc1)C3 | 30.8 µM
CC(=O)NC(NCCN)(c1ccccc1)c1ccccc1 | > 100 µM
Cc1cc(-c2cc(O)ccc2Cl)cc2nnc(Nc3ccc(OCCN4CCCC4)cc3)nc12 | 1.23 µM
CCCCCc1c(CCCC)c(=O)[nH]c2nc(NC(=O)CCCC)ccc12 | > 100 µM
C=CC1CN(C(=O)OCC)N(C(=O)OCC)C1CCc1ccccc1 (centres undefined) | > 100 µM
CC(=O)OCC(=O)OC[C@H](OCc1ccccc1)[C@@H]1[C@H](OC(C)=O)C(=O)N1Cc1ccccc1 | > 100 µM
O=C(O)C1[O][Sb][O]C(C(=O)O)C1O (centres undefined) | > 100 µM
CCc1nc2ccc(N=Nc3c(O)ccc4ccccc34)cc2[nH]1 | > 66 µM
CO[C@H]1CC(O[C@@H]2/C(C)=C/C[C@@H]3C[C@@H](C[C@]4(CC[C@H](C)[C@@H](C5CCCCC5)O4)O3)OC(=O)[C@@H]3C=C(C)/C(=N/O)[C@H]4OC/C(=C\C=C\[C@@H]2C)[C@]43O)O[C@@H](C)C1O (some centres undefined) | 9.01 µM
Clc1cccc(-c2nnc(-c3nn(-c4ccccc4)c4nc5ccccc5nc34)o2)c1 | > 100 µM

* * *

- Tested on: T-47D breast
- assay-explanation: NCI tumour cell line growth inhibition, 48 h
Measured TGI by item

compound | study-target | units-symbol | relational-operator | TGI
COc1ccccc1C(O)[C@@H]1C[C@@H]2[C@H]3CC[C@@](C)([C@@H]2O1)C3(C)C (stereo not given in full) | T-47D breast | µM | = | 41.3
CC[C@@H](C)/C=C(C)/C=C/C(=O)c1c(O)c(-c2ccc(O)cc2)cn(O)c1=O | T-47D breast | µM | = | 28.5
Fc1ccc2c3c([nH]c2c1)CCN(Cc1ccccc1)C3 | T-47D breast | µM | = | 47.3
Cc1c(CCCl)c(N=P(c2ccccc2)(c2ccccc2)c2ccccc2)n2c(nc3ccccc32)c1C#N | T-47D breast | µM | > | 10
CSc1nc2c(c(=O)n1C)CN(C1CCCCC1)C(=O)C(c1ccccc1)N2 (stereo not given) | T-47D breast | µM | > | 100
CCCCCCCCCCCCOC1C(CNC(=O)C2OC3OC(C)(C)OC3C2NC(=O)CN2CCN(c3ccc(OC)cc3)CC2)OC2OC(C)(C)OC21 (stereo not given) | T-47D breast | µM | = | 23.4
CCC(C)[C@@H](Nc1c(O)c2c(c(O)c1Cl)C(=O)C=CC2=O)C(=O)OC (stereo not given in full) | T-47D breast | µM | > | 10
CC(C)COc1nc2c(c(=O)n(C)c(=O)n2C)n1C | T-47D breast | µM | > | 100
O=C1CC(CC(=O)c2ccc(Br)cc2)C(=O)/C1=C(/O)c1ccc(Br)cc1 (stereo not given) | T-47D breast | µM | > | 100
O=[S@]1c2ccc3ccccc3c2N[C@@H]2[C@H]1[C@H]1C=C[C@@H]2C1 | T-47D breast | µM | > | 100

* * *

- Test system: SNB-19 CNS
- assay-explanation: NCI tumour cell line growth inhibition, 48 h

compound | GI50
Cc1cc(-c2cc(O)ccc2Cl)cc2nnc(Nc3ccc(OCCN4CCCC4)cc3)nc12 | 0.659 µM
CCCCCCCCCC[C@H](O)[C@H](O)CC[C@@H](O)[C@H]1CC[C@@H]([C@H]2CC[C@H](CCCCCCC[C@@H](O)CC3=C[C@H](C)OC3=O)O2)O1 | 29.5 µM
CC(=O)C1=C(O)C=C2Oc3c(C(=O)/C=C/c4cc(Cl)cc(Cl)c4)c(O)c(C)c(O)c3[C@]2(C)C1=O | 0.582 µM
Clc1ccccc1-c1nnc2c(Cc3ccccc3)nc3ccccc3n12 | 36.3 µM
C/C(=C(\c1ccc(OCCN2CCCCCC2)cc1)c1ccc(OC(=O)c2ccccc2)cc1)c1ccc(Cl)cc1 | 6.61 µM
C=CCC(N[C@H](CO)c1ccccc1)c1cn(Cc2ccccc2Cl)c(=O)n(Cc2ccccc2Cl)c1=O (some centres not stated) | 35.7 µM
O=C1c2ccccc2-c2c1c1ccccc1c(=O)n2CCCNCCn1c2c(c3ccccc3c1=O)C(=O)c1ccccc1-2 | 2.48 µM

* * *

Measured TGI by item
- System: SN12C renal
- assay-explanation: NCI tumour cell line growth inhibition, 48 h
assay-readout: TGI

structure-as-smiles | study-target | measured-result
Cc1cc2nc3ccccc3n2c2nc(N)ccc12 | SN12C renal | > 100 µM
CCCCCCCC/C=C/CCCCCCCC1=NC(C)(C)CN1CCO | SN12C renal | 18 µM
O=Cc1cc(C(=O)OCc2ccccc2)n(S(=O)(=O)c2ccccc2)c1 | SN12C renal | 66.1 µM
Clc1cccc(-c2nnc(-c3nn(-c4ccccc4)c4nc5ccccc5nc34)o2)c1 | SN12C renal | > 100 µM

* * *

- Test system: HL-60(TB) leukemia
- assay-explanation: NCI tumour cell line growth inhibition, 48 h
Please enter condition met where TGI is greater than or equal to 9 µM, and condition not met where it is lower.

compound | class-assignment
CC(=O)OCC1OC(n2c3c(c(-c4ccc(Cl)cc4)c(C#N)c2=S)CCCC3)C(OC(C)=O)C(OC(C)=O)C1OC(C)=O (configuration not stated) | condition met
CC1=CC(C)(C)NN1C1=NS(=O)(=O)c2ccccc2N1C | condition met
O=C(NNC(=S)NC1CCCCC1)C12CC3CC(CC(C3)C1)C2 | condition met
COC1(OC)C2(Cl)C(Cl)=C(Cl)C1(Cl)C1C2C2CC1(C(=O)O)c1ccccc12 (configuration not stated) | condition met
CC(=O)NC(NCCN)(c1ccccc1)c1ccccc1 | condition met
O=C1Nc2nccnc2C(=O)N2CCC[C@@H]12 | condition met
CC(=O)c1cc(C(=O)c2ccc3c(c2)Sc2ccccc2N3)n2ccccc12 | condition not met
CSCSCC(CO)NC(=O)/C(C)=C\c1c(C)[nH]c(=O)[nH]c1=O (configuration not stated) | condition met
CCOC(=O)c1nc2ccc(C(F)(F)F)cc2nc1NCc1ccc(OC)c(OC)c1 | condition met
CN(/N=C\c1ccnc2ccccc12)c1ccc([N+](=O)[O-])cc1 | condition met
CO[C@H]1CC(O[C@@H]2/C(C)=C/C[C@@H]3C[C@@H](C[C@]4(CC[C@H](C)[C@@H](C5CCCCC5)O4)O3)OC(=O)[C@@H]3C=C(C)/C(=N/O)[C@H]4OC/C(=C\C=C\[C@@H]2C)[C@]43O)O[C@@H](C)C1O (some centres not stated) | condition not met
Nc1nc(NCCCO)cc(=O)[nH]1 | condition met
CC(C)C(OC(=O)c1ccc(NCC2=CC(=O)C=CC2=O)cc1)C(C)C | condition not met
N#Cc1cnc(Nc2cc(NC[C@H]3CNCCO3)c(C(F)(F)F)cn2)cn1 | condition met
CC(C)=CCC[C@@H](C)C1=C(O)C(Nc2ccccc2Cl)=C(C)C(=O)C1=O | condition not met
COc1cccc(/C=C2\S/C(=N/Nc3nc(C)c(C)s3)NC2=O)c1O | condition met
Cc1cc(=O)oc2cc(OCC(O)COC(C)C)ccc12 (configuration not stated) | condition met
COC1OC2COC(C)(C)OC2C(OC(C)=O)C1NC(=O)N(CCCl)N=O (configuration not stated) | condition met
O=C(c1ccc(Cl)cc1)c1ccc(OCCCOc2ccc(C(=O)c3ccc(Cl)cc3)cc2Cl)c(Cl)c1 | condition met
c1ccc(CNCCN(CCNCc2ccccn2)Cc2ccc3ccccc3c2)nc1 | condition not met
COc1cccc(C2c3cc4c(cc3OC(NNS(=O)(=O)c3ccc(C)cc3)C2C)OCO4)c1OC (configuration not stated) | condition not met
CC1=C(O)c2ccccc2C(=O)C1=O | condition met
O=C(CSCC(=O)N/N=C\c1cccc([N+](=O)[O-])c1)N/N=C\c1cccc([N+](=O)[O-])c1 | condition met
COC(=O)c1cc(NC(=O)Cc2c[nH]c3ccccc23)cn1C | condition met
Nc1nc(/C=C\c2ccccc2)nc(N2CCN(c3ccccc3)CC2)n1 | condition met
COC(=O)c1cc2c3ccccc3n3c2c(n1)-c1[nH]c2ccccc2c(=O)c1C3 | condition met
COc1nc(N)c(NC(C)=O)c(=O)n1C | condition met
COc1ccccc1C(O)[C@@H]1C[C@@H]2[C@H]3CC[C@@](C)([C@@H]2O1)C3(C)C (some centres not stated) | condition met
O=C(CCN1CCCCC1)N1CCc2c([nH]c3ccccc23)C1c1cccnc1 (configuration not stated) | condition met
CC(C)C1NC(=O)CC(c2ccccc2)N(N=O)C1c1ccccc1 (configuration not stated) | condition met
Cn1cc(-c2cnn3c(N)c(Br)c(C4CCCNC4)nc23)cn1 (configuration not stated) | condition met
CC(C)COc1nc2c(c(=O)n(C)c(=O)n2C)n1C | condition met
CC(C)CC(N)C(=O)Nc1ccc2ccccc2c1 (configuration not stated) | condition met
COc1ccc2c(c1)CCCN1CCc3ccccc3C21 (configuration not stated) | condition met
O=C(Nc1ccc(Cl)c(Cl)c1)C(=O)C(C(=O)c1ccccc1-c1ccccc1)C1OC(=O)c2ccccc21 (configuration not stated) | condition met
Cc1ccc2c(=O)cc(-c3ccc4ccccc4c3)[nH]c2n1 | condition not met
O=c1c(Cl)c(Cl)cnn1CCCl | condition not met
CCCCCC/C=C\CCCCCCCCCC1=C(CN2CCN(C)CC2)C(=O)C=C(OC)C1=O | condition not met
Cc1c(N=C/C=C/c2ccccc2)c(=O)n(-c2ccccc2)n1C | condition met
COc1cc(OC)cc(-c2cc(=O)c3cc4c(cc3[nH]2)OCO4)c1 | condition not met
CCN(Cc1cccc(Cl)c1)c1ccc(CO)c(Cl)c1 | condition met

Data provenance: PubChem BioAssay (NCI)
